# System: MS2 coat protein
# test.summary: apparent KD of MS2 coat protein, switch OFF state (with FMN for OFF switches, without FMN for ON switches); designed switch direction (-1 OFF switch, 1 ON switch): 1; higher = weaker reporter binding
# cond: FMN input: 0 or 200 uM; Eterna round: R93 (includes R88 designs)
measured.attribute: apparent KD of MS2 coat protein (nM)
The reply should be a number in nM, with the unit left off.

The following sequences have reported results that may help.
AAAACACAUGAGGAUCACCCAUGUAAAAACAUGGGAGGAUAUGCAUGAAAAACAUGCUAUGCAGAAGGCUCAUGUG [SS1 - 2] :: 99.1
CGCCAAUUGGCACAGGAUAUGAGCAUGCUCACAUGAGGAUCACCCAUGUGAUUACCAACGCAAAAUCAGAAGGGUGCCCUCGUCA [Beanza] :: 92.6

Shifting focus to the sequence that follows.
stdin: Quick one: apparent KD of MS2 coat protein for AAAGAAAAACUAGAGGAUAUCUAGAUGAUAACAUGAGGAUCACCCAUGUGAAGAAAGGAAUAUAGGGAGAAGGCUAGAAGAAAAA [JL Nando mod 20] ?
stdout: 28.6
